subject of test: Sirt6 (Homo sapiens, UniProt Q8N6T7)
Sequence (Q8N6T7 whole entry): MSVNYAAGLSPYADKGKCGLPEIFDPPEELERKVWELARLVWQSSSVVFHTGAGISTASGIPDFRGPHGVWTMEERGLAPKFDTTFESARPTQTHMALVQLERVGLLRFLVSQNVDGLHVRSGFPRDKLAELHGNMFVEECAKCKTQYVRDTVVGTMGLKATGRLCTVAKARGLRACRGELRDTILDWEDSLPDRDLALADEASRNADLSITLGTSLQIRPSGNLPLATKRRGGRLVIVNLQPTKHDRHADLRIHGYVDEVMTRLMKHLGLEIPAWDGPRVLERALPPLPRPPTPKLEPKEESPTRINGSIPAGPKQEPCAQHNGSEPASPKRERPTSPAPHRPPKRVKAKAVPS
protocol description: Sirt6-dependent peptide deacetylation, Fluor de Lys
assay conditions: compound at 100 μM; mean ± SD, at least two independent experiments
measured metric: Activation Fold 100 μM (fold)
Could you give me the number in fold? Just the number is fine.

compound="c1ccc2c(c1)NC(c1cccnc1N1CCN(CCn3ccnc3)CC1)c1cccn1-2 (centres unmarked) [Compound 50]" observed_result=6.29

Pending compound:
query: For Sirt6 (Homo sapiens, UniProt Q8N6T7), give the measured Activation Fold 100 μM of the entry c1ccc2c(c1)NC(c1cccnc1N1CCN(CCN3CCCC3)CC1)c1cccn1-2 (centres unmarked) [Compound 47]
result: 5.38

###

subject of test: Sirt6 (Homo sapiens)
protocol description: Sirt6-dependent peptide deacetylation, Fluor de Lys
assay conditions: compound at 100 μM; mean ± SD, at least two independent experiments
measured metric: Activation Fold 100 μM

Some molecules with known Activation Fold 100 μM results, for comparison:
molecule="OC1CCN(c2ncccc2C2Nc3ccccc3-n3cccc32)CC1 (stereo not drawn)" subject_of_test="Sirt6 (Homo sapiens)" observed_result="~ 2 fold"
molecule="O=S1(=O)CCN(c2ncccc2C2Nc3ccccc3-n3cccc32)CC1 (stereo not drawn)" subject_of_test="Sirt6 (Homo sapiens)" observed_result="~ 2 fold"

Pending molecule:
query: For Sirt6 (Homo sapiens), give the measured Activation Fold 100 μM of the entry FC1(F)CCN(c2ncccc2C2Nc3ccccc3-n3cccc32)CC1 (stereo not drawn)
result: ~ 2 fold
